Values were extracted from patent US10227362B2.

test system: P-glycoprotein (MDR1); experiment: MDR1-MDCK cell bi-directional permeability; assay type: in vitro ADME; details: dog, A to B, HBSS pH 7.4, read-out: MDR1-MDCK Monolayer Cell Bi-directional Permeability Parameters A to B
Each item that follows carries a reported Papp A→B at 2.5 h, 2 μM.
Write the answer as a number in ×10⁻⁶ cm/s, unit excluded.

Completed entries (count: 4):
{"Molecule": "CC1(CN2CCc3nc(-c4ccccc4)ccc3C2)Cn2cc([N+](=O)[O-])nc2O1 (single isomer, unassigned)", "Display Unit": "×10⁻⁶ cm/s", "Papp A→B at 2.5 h, 2 μM": 16.8}
{"Molecule": "C[C@]1(CN2Cc3nc(-c4ccc(F)cc4)oc3C2)Cn2cc([N+](=O)[O-])nc2O1", "Display Unit": "×10⁻⁶ cm/s", "Papp A→B at 2.5 h, 2 μM": 25.9}
{"Molecule": "C[C@]1(COc2ccc(N3CCC(Oc4ccc(OC(F)(F)F)cc4)CC3)cc2)Cn2cc([N+](=O)[O-])nc2O1 [OPC-67683, delamanid, reference compound]", "Display Unit": "×10⁻⁶ cm/s", "Papp A→B at 2.5 h, 2 μM": 0.09}
{"Molecule": "C[C@]1(CN2Cc3nc(-c4ccc(F)cc4)sc3C2)Cn2cc([N+](=O)[O-])nc2O1", "Display Unit": "×10⁻⁶ cm/s", "Papp A→B at 2.5 h, 2 μM": 20.9}

Kindly review the next molecule as well.
Ask: Supply Papp A→B at 2.5 h, 2 μM value. Item: C[C@]1(CN2CCc3nc(-c4ccc(F)cc4)ccc3C2)Cn2cc([N+](=O)[O-])nc2O1
Result: 17.7
